# system_under_test: human erythrocyte plasma membrane Ca^2+ -ATPase (Homo sapiens)
# Construct: Calmodulin-depleted erythrocyte membranes were prepared by continuous filtration through a hollow fibre; tissue New South Wales Red Cross Transfusion Service, Sydney; host or cells: human packed red blood cells (calmodulin-depleted erythrocyte membranes)
# Sequence (P23634 1-1205 isoform P23634-6): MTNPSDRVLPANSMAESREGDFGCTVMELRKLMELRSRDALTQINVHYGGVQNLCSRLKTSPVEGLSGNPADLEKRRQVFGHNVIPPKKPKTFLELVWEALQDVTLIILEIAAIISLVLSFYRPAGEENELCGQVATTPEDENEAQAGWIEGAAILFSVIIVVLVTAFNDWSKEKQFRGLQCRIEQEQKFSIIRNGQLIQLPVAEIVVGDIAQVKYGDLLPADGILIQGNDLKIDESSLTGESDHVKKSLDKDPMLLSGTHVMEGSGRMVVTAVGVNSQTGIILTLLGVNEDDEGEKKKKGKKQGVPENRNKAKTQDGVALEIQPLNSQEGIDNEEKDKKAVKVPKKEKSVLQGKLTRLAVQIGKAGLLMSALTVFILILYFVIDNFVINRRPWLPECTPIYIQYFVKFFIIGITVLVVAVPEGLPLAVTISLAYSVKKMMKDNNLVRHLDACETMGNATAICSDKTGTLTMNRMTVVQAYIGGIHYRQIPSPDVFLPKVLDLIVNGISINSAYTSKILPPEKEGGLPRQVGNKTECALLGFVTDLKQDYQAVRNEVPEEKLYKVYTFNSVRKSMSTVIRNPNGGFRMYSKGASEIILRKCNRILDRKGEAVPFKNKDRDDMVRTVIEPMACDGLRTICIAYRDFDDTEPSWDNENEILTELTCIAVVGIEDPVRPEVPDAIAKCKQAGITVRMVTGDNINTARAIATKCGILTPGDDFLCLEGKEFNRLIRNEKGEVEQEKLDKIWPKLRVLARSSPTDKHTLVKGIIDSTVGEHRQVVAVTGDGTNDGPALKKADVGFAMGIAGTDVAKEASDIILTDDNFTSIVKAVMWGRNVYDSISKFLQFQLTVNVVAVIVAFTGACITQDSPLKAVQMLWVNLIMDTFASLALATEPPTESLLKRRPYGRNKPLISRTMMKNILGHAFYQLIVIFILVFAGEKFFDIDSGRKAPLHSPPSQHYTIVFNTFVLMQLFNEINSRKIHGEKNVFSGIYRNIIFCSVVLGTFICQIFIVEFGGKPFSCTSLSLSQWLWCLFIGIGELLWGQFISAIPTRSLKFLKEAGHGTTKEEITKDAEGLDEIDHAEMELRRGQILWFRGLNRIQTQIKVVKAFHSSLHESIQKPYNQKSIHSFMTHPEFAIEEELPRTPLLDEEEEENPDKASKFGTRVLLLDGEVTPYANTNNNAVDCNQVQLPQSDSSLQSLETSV
# Sequence (P35613 140-385 partner limits assumed): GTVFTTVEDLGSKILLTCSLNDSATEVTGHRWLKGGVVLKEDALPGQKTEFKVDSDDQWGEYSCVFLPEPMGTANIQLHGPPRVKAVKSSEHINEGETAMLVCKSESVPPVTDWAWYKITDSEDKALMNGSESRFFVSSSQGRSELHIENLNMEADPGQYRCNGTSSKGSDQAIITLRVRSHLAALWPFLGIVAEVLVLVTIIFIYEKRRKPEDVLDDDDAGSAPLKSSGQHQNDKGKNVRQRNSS
# measurement_notes: Ca^2+ -ATPase assay (erythrocyte membranes; Table 1)
# Type: biochemical
# test_context: at 100 μM; read-out: INHIBITION OF Ca^2+ -ATPase PERCENT (%)
observation_type: inhibition at 100 µM (%)

CCCCCCCCCCCCc1ccc(O)cc1O [4-dodecylresorcinol, reference compound] :: 68
Cc1cc(C(C)(C)C)c(O)c(C(C)(C)C)c1 [BHT, 2,6-di-tert-butyl-4-methylphenol, reference compound] :: 69
CC(C)=CCC/C(C)=C/CC/C(C)=C/Cc1c(O)cc(C)cc1O :: 100
CC(C)(C)c1cc(O)c(O)c(C(C)(C)C)c1 [3,5-di-tert-butyl-catechol, reference compound] :: 76

I. CCCCCCCCCc1c(Br)c(O)c(Br)c(O)c1C(=O)OCC
II. Oc1cc(O)cc(CCCCCCCCCCCCCCc2cc(O)cc(O)c2)c1 [bisnorstriatol, 1,14-bis(3,5-dihydroxyphenyl)tetradecane]
Between these two entries, I and II , state which has the higher inhibition at 100 µM. When you have decided, please share the label of that item.
I
(I: 95%, II: 35%)
